Test system: Escherichia coli TOP10
Assay: shrunken log2 fold change of peptide-encoding DNA abundance (4.5 h post-induction vs induction); higher = less antimicrobial activity (less host growth inhibition)
Conditions: time post-induction: 4.5 h; library: site-saturation at positions 5, 18, 19, 20
quantityMeasured: shrunken log2 fold change

{"residueSequence": "RRIRFRPPRLPRPRPRPYMHPRP", "shrunken log2 fold change": -0.72}
{"residueSequence": "RRIRARPPRLPRPRPRPMHLPRP", "shrunken log2 fold change": -0.00822}
{"residueSequence": "RRIRHRPPRLPRPRPRPRWKPRP", "shrunken log2 fold change": 0.00489}
{"residueSequence": "RRIRPRPPRLPRPRPRPPAGPRP", "shrunken log2 fold change": 0.506}
{"residueSequence": "RRIRYRPPRLPRPRPRPTKKPRP", "shrunken log2 fold change": 0.113}
{"residueSequence": "RRIRKRPPRLPRPRPRPVRTPRP", "shrunken log2 fold change": 0.583}
{"residueSequence": "RRIRHRPPRLPRPRPRPHNIPRP", "shrunken log2 fold change": -0.209}
{"residueSequence": "RRIRKRPPRLPRPRPRPSHDPRP", "shrunken log2 fold change": -0.203}

Qu. Look at this sequence and give its reported shrunken log2 fold change. RRIRTRPPRLPRPRPRPPRWPRP
Ans. 0.689

Qu. Look at this sequence and give its reported shrunken log2 fold change. RRIRVRPPRLPRPRPRPARMPRP
Ans. 0.425

Qu. Look at this sequence and give its reported shrunken log2 fold change. RRIRDRPPRLPRPRPRPRADPRP
Ans. 0.65

Qu. Look at this sequence and give its reported shrunken log2 fold change. RRIRNRPPRLPRPRPRPACGPRP
Ans. 0.547

Qu. Look at this sequence and give its reported shrunken log2 fold change. RRIRYRPPRLPRPRPRPTPIPRP
Ans. -0.158

Qu. Look at this sequence and give its reported shrunken log2 fold change. RRIRFRPPRLPRPRPRPMCPPRP
Ans. -0.176

Qu. Look at this sequence and give its reported shrunken log2 fold change. RRIRFRPPRLPRPRPRPVYHPRP
Ans. -1.19

Qu. Look at this sequence and give its reported shrunken log2 fold change. RRIRMRPPRLPRPRPRPKMMPRP
Ans. 0.351

Qu. Look at this sequence and give its reported shrunken log2 fold change. RRIRWRPPRLPRPRPRPSRFPRP
Ans. -0.0148

* * *

Tested on: Escherichia coli TOP10
Test: shrunken log2 fold change of peptide-encoding DNA abundance (4.5 h post-induction vs induction); higher = less antimicrobial activity (less host growth inhibition)
Settings: time post-induction: 4.5 h; library: site-saturation at positions 5, 18, 19, 20
Think of 0.04 as a floor: if shrunken log2 fold change stands on it or above, it is met; beneath it, not met.

The examples below pair each entry with its known result.
{"residueSequence": "RRIRGRPPRLPRPRPRPFTTPRP", "groupLabel": "met"}
{"residueSequence": "RRIRHRPPRLPRPRPRPFCDPRP", "groupLabel": "met"}
{"residueSequence": "RRIRERPPRLPRPRPRPYNKPRP", "groupLabel": "not met"}
{"residueSequence": "RRIRWRPPRLPRPRPRPLDPPRP", "groupLabel": "met"}
{"residueSequence": "RRIRVRPPRLPRPRPRPAICPRP", "groupLabel": "not met"}

Qu. Please indicate if the recorded shrunken log2 fold change for RRIRFRPPRLPRPRPRPLSSPRP meets or exceeds 0.04.
Ans. not met

Qu. Please indicate if the recorded shrunken log2 fold change for RRIRPRPPRLPRPRPRPPMYPRP meets or exceeds 0.04.
Ans. not met

* * *

Test system: Escherichia coli TOP10
Experiment: shrunken log2 fold change of peptide-encoding DNA abundance (4.5 h post-induction vs induction); higher = less antimicrobial activity (less host growth inhibition)
Details: time post-induction: 4.5 h; library: site-saturation at positions 5, 18, 19, 20
quantityMeasured: shrunken log2 fold change

{"residueSequence": "RRIRCRPPRLPRPRPRPMTAPRP", "reported": 0.0275}

Qu. Look at this sequence and give its reported shrunken log2 fold change. RRIRARPPRLPRPRPRPRTYPRP
Ans. -0.126

* * *

Tested on: Escherichia coli TOP10
Assay: shrunken log2 fold change of peptide-encoding DNA abundance (4.5 h post-induction vs induction); higher = less antimicrobial activity (less host growth inhibition)
Details: time post-induction: 4.5 h; library: site-saturation at positions 5, 18, 19, 20
quantityMeasured: shrunken log2 fold change

{"residueSequence": "RRIRCRPPRLPRPRPRPYESPRP", "targetOrSystem": "Escherichia coli TOP10", "reported": 0.0203}
{"residueSequence": "RRIRLRPPRLPRPRPRPNYVPRP", "targetOrSystem": "Escherichia coli TOP10", "reported": -0.566}
{"residueSequence": "RRIRVRPPRLPRPRPRPIQPPRP", "targetOrSystem": "Escherichia coli TOP10", "reported": 0.0215}

Qu. Look at this sequence and give its reported shrunken log2 fold change. RRIRERPPRLPRPRPRPGIFPRP
Ans. 0.099

Qu. Look at this sequence and give its reported shrunken log2 fold change. RRIRQRPPRLPRPRPRPRQHPRP
Ans. -0.141

* * *

Listing of entries alongside the reported shrunken log2 fold change.
Tested on: Escherichia coli TOP10
Experiment: shrunken log2 fold change of peptide-encoding DNA abundance (4.5 h post-induction vs induction); higher = less antimicrobial activity (less host growth inhibition)
Details: time post-induction: 4.5 h; library: site-saturation at positions 5, 18, 19, 20
Could you respond with only the numeric value?

Use these answered entries as a reference point.
{"residueSequence": "RRIRARPPRLPRPRPRPASYPRP", "shrunken log2 fold change": 0.187}
{"residueSequence": "RRIRGRPPRLPRPRPRPYCGPRP", "shrunken log2 fold change": -0.349}

Proceed to the following item.
Qu. Look at this sequence and give its reported shrunken log2 fold change. RRIRSRPPRLPRPRPRPWHFPRP
Ans. -0.0226

* * *

System: Escherichia coli TOP10
Assay: shrunken log2 fold change of peptide-encoding DNA abundance (4.5 h post-induction vs induction); higher = less antimicrobial activity (less host growth inhibition)
Conditions: time post-induction: 4.5 h; library: site-saturation at positions 5, 18, 19, 20
Think of -0.1 as a floor: if shrunken log2 fold change stands on it or above, it is y; beneath it, n.

{"residueSequence": "RRIRARPPRLPRPRPRPLTFPRP", "groupLabel": "n"}
{"residueSequence": "RRIRPRPPRLPRPRPRPKMTPRP", "groupLabel": "y"}
{"residueSequence": "RRIRSRPPRLPRPRPRPPVDPRP", "groupLabel": "y"}
{"residueSequence": "RRIRARPPRLPRPRPRPRTLPRP", "groupLabel": "y"}
{"residueSequence": "RRIRHRPPRLPRPRPRPVADPRP", "groupLabel": "n"}

Qu. Please indicate if the recorded shrunken log2 fold change for RRIRGRPPRLPRPRPRPKLFPRP meets or exceeds -0.1.
Ans. y

* * *

System: Escherichia coli TOP10;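 further: peptides expressed intracellularly from a pBAD plasmid library in pooled LB shake-flask culture, induced with 0.3% L-arabinose, DNA abundance read by NGS, three biological replicates, DESeq2 with apeglm shrinkage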
Assay: shrunken log2 fold change of peptide-encoding DNA abundance (4.5 h post-induction vs induction); higher = less antimicrobial activity (less host growth inhibition)
Settings: time post-induction: 4.5 h; library: site-saturation at positions 5, 18, 19, 20
quantityMeasured: shrunken log2 fold change
Could you respond with only the numeric value?

Use these answered entries as a reference point.
{"residueSequence": "RRIRIRPPRLPRPRPRPHGAPRP", "shrunken log2 fold change": -0.0865}
{"residueSequence": "RRIRRRPPRLPRPRPRPFSFPRP", "shrunken log2 fold change": -0.0665}
{"residueSequence": "RRIRARPPRLPRPRPRPKNMPRP", "shrunken log2 fold change": -0.191}

Qu. Look at this sequence and give its reported shrunken log2 fold change. RRIRHRPPRLPRPRPRPQNPPRP
Ans. -0.0256

Qu. Look at this sequence and give its reported shrunken log2 fold change. RRIRYRPPRLPRPRPRPSNAPRP
Ans. -1

Qu. Look at this sequence and give its reported shrunken log2 fold change. RRIRVRPPRLPRPRPRPQDCPRP
Ans. -0.172

Qu. Look at this sequence and give its reported shrunken log2 fold change. RRIRCRPPRLPRPRPRPLFDPRP
Ans. -0.426

Qu. Look at this sequence and give its reported shrunken log2 fold change. RRIRGRPPRLPRPRPRPDCEPRP
Ans. 1.44

Qu. Look at this sequence and give its reported shrunken log2 fold change. RRIRDRPPRLPRPRPRPIQTPRP
Ans. 0.00408

Qu. Look at this sequence and give its reported shrunken log2 fold change. RRIRLRPPRLPRPRPRPEERPRP
Ans. 0.231

Qu. Look at this sequence and give its reported shrunken log2 fold change. RRIRLRPPRLPRPRPRPICHPRP
Ans. -0.368

Qu. Look at this sequence and give its reported shrunken log2 fold change. RRIRHRPPRLPRPRPRPFAPPRP
Ans. -0.0777

Qu. Look at this sequence and give its reported shrunken log2 fold change. RRIRARPPRLPRPRPRPCAMPRP
Ans. 0.397

Qu. Look at this sequence and give its reported shrunken log2 fold change. RRIRRRPPRLPRPRPRPMDQPRP
Ans. 0.132

Qu. Look at this sequence and give its reported shrunken log2 fold change. RRIRFRPPRLPRPRPRPKTCPRP
Ans. 0.0353

Qu. Look at this sequence and give its reported shrunken log2 fold change. RRIRDRPPRLPRPRPRPVGAPRP
Ans. 0.825

Qu. Look at this sequence and give its reported shrunken log2 fold change. RRIRERPPRLPRPRPRPSDLPRP
Ans. -0.151
